Data provenance is patent US10011610B2.

# testSystem: human BACE2 (1-460):Fc (Homo sapiens, UniProt Q9Y5Z0)
# Sequence (Q9Y5Z0 21-460): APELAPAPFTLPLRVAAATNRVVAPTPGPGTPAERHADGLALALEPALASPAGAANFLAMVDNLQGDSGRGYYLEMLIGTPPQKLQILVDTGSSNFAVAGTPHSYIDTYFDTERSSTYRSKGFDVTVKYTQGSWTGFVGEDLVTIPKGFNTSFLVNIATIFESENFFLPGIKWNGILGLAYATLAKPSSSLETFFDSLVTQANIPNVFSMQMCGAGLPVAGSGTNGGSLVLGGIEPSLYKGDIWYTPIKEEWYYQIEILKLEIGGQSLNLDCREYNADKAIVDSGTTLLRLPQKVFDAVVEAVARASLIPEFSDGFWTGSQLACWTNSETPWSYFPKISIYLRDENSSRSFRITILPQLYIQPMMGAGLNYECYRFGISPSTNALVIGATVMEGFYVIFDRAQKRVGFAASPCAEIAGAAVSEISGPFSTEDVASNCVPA
valueKind: IC50 (nM)
Response body: numeric value in nM, unit text excluded.

Check the records and state IC50 for CC(F)(F)[C@H]1OC[C@]2(c3cc(NC(=O)c4ccc(C#N)cn4)ccc3F)N=C(N)SC[C@H]12 [Example 1]
17.6

====

# testSystem: human BACE1(1-460):Fc (Homo sapiens, UniProt P56817)
# Sequence (P56817 22-460): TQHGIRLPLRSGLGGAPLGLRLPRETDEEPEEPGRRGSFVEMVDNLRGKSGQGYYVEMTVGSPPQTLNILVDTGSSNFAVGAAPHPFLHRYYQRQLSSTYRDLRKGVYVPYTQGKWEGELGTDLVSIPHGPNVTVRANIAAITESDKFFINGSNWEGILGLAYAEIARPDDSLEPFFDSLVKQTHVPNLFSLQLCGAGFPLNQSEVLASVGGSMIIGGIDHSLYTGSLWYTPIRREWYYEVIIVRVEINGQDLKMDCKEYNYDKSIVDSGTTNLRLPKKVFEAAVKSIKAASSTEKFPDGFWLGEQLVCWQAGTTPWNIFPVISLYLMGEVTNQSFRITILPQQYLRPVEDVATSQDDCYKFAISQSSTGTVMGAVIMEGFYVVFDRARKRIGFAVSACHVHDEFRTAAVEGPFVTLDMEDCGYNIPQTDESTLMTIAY
# protocolDescription: BACE1 FRET Assay
# conditionNotes: purified recombinant huBACE1:Fc, mean±standard deviation of the mean, n=4
valueKind: pIC50
Value format note: pIC50 is -log10 of concentration (mol/L); just state the number.

For the compound `CC(F)(F)[C@H]1OC[C@]2(c3cc(NC(=O)c4ccc(C#N)cn4)ccc3F)N=C(N)SC[C@H]12` , give its reported pIC50.
9.29
